Target: EGFR (Δ19del/T790M/C797S) (Homo sapiens, UniProt P00533, C797S/T790M, form not given)
Sequence (P00533 25-1210 T790M/C797S limits assumed, form open): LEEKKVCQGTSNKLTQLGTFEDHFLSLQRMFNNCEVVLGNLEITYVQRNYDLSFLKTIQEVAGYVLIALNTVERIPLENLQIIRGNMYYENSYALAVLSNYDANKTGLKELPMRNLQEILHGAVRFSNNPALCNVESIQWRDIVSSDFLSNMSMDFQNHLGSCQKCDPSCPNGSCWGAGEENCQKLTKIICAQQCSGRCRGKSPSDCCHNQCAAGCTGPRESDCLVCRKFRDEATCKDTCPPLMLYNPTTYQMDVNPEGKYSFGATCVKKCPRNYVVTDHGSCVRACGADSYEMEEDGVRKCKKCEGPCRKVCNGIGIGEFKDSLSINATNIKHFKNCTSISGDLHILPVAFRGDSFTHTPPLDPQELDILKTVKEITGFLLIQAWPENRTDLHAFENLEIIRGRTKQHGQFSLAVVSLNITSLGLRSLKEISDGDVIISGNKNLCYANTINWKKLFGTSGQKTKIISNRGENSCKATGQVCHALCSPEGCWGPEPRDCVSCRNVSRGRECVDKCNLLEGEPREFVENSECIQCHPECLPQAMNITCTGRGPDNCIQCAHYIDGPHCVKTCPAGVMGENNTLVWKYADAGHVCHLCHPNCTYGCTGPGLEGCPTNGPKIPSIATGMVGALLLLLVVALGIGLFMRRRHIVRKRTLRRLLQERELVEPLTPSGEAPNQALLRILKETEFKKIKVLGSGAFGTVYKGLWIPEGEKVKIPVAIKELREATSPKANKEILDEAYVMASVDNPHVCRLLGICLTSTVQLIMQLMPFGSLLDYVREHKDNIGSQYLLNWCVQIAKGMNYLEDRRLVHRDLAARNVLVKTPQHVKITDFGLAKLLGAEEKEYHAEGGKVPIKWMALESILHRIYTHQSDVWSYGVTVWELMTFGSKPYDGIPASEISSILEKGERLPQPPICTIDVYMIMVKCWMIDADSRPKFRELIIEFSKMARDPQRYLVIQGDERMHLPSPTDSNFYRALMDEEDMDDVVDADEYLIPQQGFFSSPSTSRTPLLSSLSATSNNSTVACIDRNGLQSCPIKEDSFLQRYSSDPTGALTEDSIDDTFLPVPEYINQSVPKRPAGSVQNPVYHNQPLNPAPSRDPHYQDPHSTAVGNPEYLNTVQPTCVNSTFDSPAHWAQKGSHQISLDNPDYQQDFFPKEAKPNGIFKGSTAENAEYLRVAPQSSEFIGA
Assay: Enzyme activity experiment (1): EGFR (Δ19del/T790M/C797S) enzyme inhibition
Conditions: read-out: EGFR (Δ19del/T790M/C797S) IC50
pIC50: −log10 of the molar value.
recordedMetric: pIC50

Below, each entry is followed by its recorded pIC50 result.
compound	tgt	pIC50
COc1cc(N2CCC3(CC2)CN(C)C3)c(C)cc1Nc1ncc(Cl)c(Nc2ccc3cnn(C)c3c2P(C)(C)=O)n1 [Compound 13]	EGFR (Δ19del/T790M/C797S) (Homo sapiens, UniProt P00533, C797S/T790M, form not given)	8.24
COc1ccc(OCCNS(C)(=O)=O)cc1Nc1ncc(Cl)c(Nc2ccc3ccccc3c2P(C)(C)=O)n1 [Compound 29]	EGFR (Δ19del/T790M/C797S) (Homo sapiens, UniProt P00533, C797S/T790M, form not given)	7.17
COc1ccc(OCCNCc2cccnc2)cc1Nc1ncc(Cl)c(Nc2ccc3ccccc3c2P(C)(C)=O)n1 [Compound 19]	EGFR (Δ19del/T790M/C797S) (Homo sapiens, UniProt P00533, C797S/T790M, form not given)	7.89
COc1ccc(OCCNCc2cnccn2)cc1Nc1ncc(Cl)c(Nc2ccc3ccccc3c2P(C)(C)=O)n1 [Compound 18]	EGFR (Δ19del/T790M/C797S) (Homo sapiens, UniProt P00533, C797S/T790M, form not given)	7.60
CCc1cc(Nc2ncc(Br)c(Nc3ccc4nccnc4c3P(C)(C)=O)n2)c(OC)cc1N1CCC(N2CCN(C)CC2)CC1 [Compound 41]	EGFR (Δ19del/T790M/C797S) (Homo sapiens, UniProt P00533, C797S/T790M, form not given)	9.67

P: COc1cc(N2CCC3(CC2)CN(C)C3)ccc1Nc1ncc(Cl)c(Nc2ccc3ccccc3c2P(C)(C)=O)n1 [Compound 5]
Q: COc1cc(N2CCC3(CCN(C)CC3)CC2)c(Cl)cc1Nc1ncc(Cl)c(Nc2ccc3sccc3c2P(C)(C)=O)n1 [Compound 1]
R: COc1cc(N2CCC3(CC2)CN(C)C3)c(C)cc1Nc1ncc(Cl)c(Nc2ccc3ccccc3c2P(C)(C)=O)n1 [Compound 9]
S: COc1cc(N2CCC3(CC2)CN(C)C3)c(C)cc1Nc1ncc(Cl)c(Nc2ccc3nccnc3c2P(C)(C)=O)n1 [Compound 8]
T: COc1cc(N2CCC3(CC2)CN(C)C3)c(C)cc1Nc1ncc(Br)c(Nc2ccc3ccccc3c2P(C)(C)=O)n1 [Compound 23]
Query block: Please put the entries in order of rising pIC50. When ranking, write the labels in the order the request describes.
Result block: Q, P, S, R, T
(Q: 8.58, P: 8.79, S: 9.10, R: 9.31, T: 10.29)
